Cited source: PubChem BioAssay (NCI)

Each item that follows carries a reported growth inhibition.
- Protocol Description: NCI Yeast Anticancer Drug Screen. Data for the sgs1 mgt1 strain (AID 161);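 further: 0% = growth of cultures given vehicle only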
- Study Conditions: S. cerevisiae sgs1 mgt1 strain, at 50.0 µM, hits give high values
This is part of a sample that, as a whole, favours compounds with a hit. Of some 79,000 tested, about 15% had one in any assay.
Enter your answer as a number in %; do not include the unit.

compound="COc1cc2c(c(OC)c1OC)-c1ccc(O)cc1C(NC(C)=O)CC2 (configuration not stated)" measurement_units=% recorded_value=-4.1
compound=CC(=N\O)/C(C)=N/O.CC(=N\O)/C(C)=N/O.CC(=N\O)/C(C)=N/O.CC(=N\O)/C(C)=N/O.[CH3-].[CH3-].[Co].[Co] measurement_units=% recorded_value=30.1
compound=COP(=O)(OC)N1CCCCC1 measurement_units=% recorded_value=12.7

QUERY: I'd like to know its growth inhibition. The compound in question is `O=[N+]([O-])c1ccc(N2CCOCC2)c2c1no[n+]2[O-]`
RESULT: 89

QUERY: Now consider `CC[n+]1c(C)n(-c2ccccc2)c(=O)c2ccccc21` .
RESULT: 4.75
